subject of test: wild-type HIV-1 protease (Human immunodeficiency virus type 1 group M subtype B)
test description: Assay for inhibition of microbial expressed HIV protease
Format: biochemical
condition info: wild-type HIV-1 protease expressed in E. coli, peptide substrate, pH 5.5; read-out: Enzyme Inhibition - IC50
metric name: pIC50
Scale for pIC50: -log10 of concentration given in mol/L; no unit attached.

Illustrative cases are given below, each with its answer.
1) COC(=O)N[C@@H](Cc1ccccc1Cl)C(=O)N[C@@H](C)CCC[C@@H](CO)N(CC(C)C)S(=O)(=O)c1ccc(CO)cc1	10.09
2) C=C[C@H](CCC[C@@H](CO)N(CCC(C)C)S(=O)(=O)c1ccc(CO)cc1)NC(=O)[C@@H](NC(=O)OC)C(c1ccccc1)c1ccccc1	9.73
3) CCN([C@H](CO)CCC[C@H](C)NC(=O)[C@H](Cc1ccccc1Cl)NC(=O)OC)S(=O)(=O)c1ccc(CO)cc1	9.20
4) CC[C@@H](CCC[C@@H](CO)N(CCC(C)C)S(=O)(=O)c1ccc(CO)cc1)NC(=O)[C@@H](NC)C(c1ccccc1)c1ccccc1	10.60
5) COC(=O)N[C@@H](Cc1ccccc1Cl)C(=O)N[C@H](CCC[C@@H](CO)N(C(C)C)S(=O)(=O)c1ccc(CO)cc1)C1CC1	8.65

Entry COC(=O)N[C@@H](Cc1ccccc1Br)C(=O)N[C@@H](C)CCC[C@@H](CO)N(C(C)C)S(=O)(=O)c1ccc(N)cc1 ; pIC50 = 9.23

What the record says about COC(=O)N[C@@H](Cc1ccccc1Cl)C(=O)N[C@@H](C)CCC[C@@H](CO)N(C(C)C)S(=O)(=O)c1ccc(N)cc1 : pIC50 is 8.89

For this molecule ( COC(=O)N[C@H](C(=O)N[C@@H](C)CCC[C@@H](CO)N(CCC(C)C)S(=O)(=O)c1ccc(CO)cc1)C(c1ccccc1)c1ccccc1 ), measured pIC50 is 11.15

For reference, reported pIC50 for CC[C@@H](CCC[C@@H](CO)N(CCC(C)C)S(=O)(=O)c1ccc(N)cc1)NC(=O)[C@@H](NC(=O)OC)C1c2ccccc2Oc2ccccc21 stands at 10.68

molecule COC(=O)N[C@H](C(=O)N[C@@H](C)CCC[C@@H](CO)N(CC(C)C)S(=O)(=O)c1ccc(N)cc1)C(c1ccccc1)c1ccccc1 , pIC50 observed: 10.46

COC(=O)N[C@H](C(=O)N[C@H](CCC[C@@H](CO)N(C(C)C)S(=O)(=O)c1ccc(CO)cc1)C1CC1)C(c1ccccc1)c1ccccc1 yielded pIC50 of 9.87

Just so you know, measured pIC50 for CCCN([C@H](CO)CCC[C@@H](NC(=O)[C@H](Cc1ccccc1Cl)NC(=O)OC)C(F)(F)F)S(=O)(=O)c1ccc(CO)cc1 came out at 9.90

###

subject of test: wild-type HIV-1 protease (Human immunodeficiency virus type 1 group M subtype B)
test description: Assay for inhibition of microbial expressed HIV protease
Assay type: biochemical
condition info: wild-type HIV-1 protease expressed in E. coli, peptide substrate, pH 5.5; read-out: Enzyme Inhibition - IC50
metric name: pIC50
Just the number, please; pIC50 means minus log10 of the concentration in mol/L.

1. COC(=O)N[C@@H](Cc1ccccc1Cl)C(=O)N[C@@H](C)CCC[C@@H](CO)N(CC(C)C)S(=O)(=O)c1ccc(N)cc1	9.49
2. COC(=O)N[C@H](C(=O)N[C@H](CCC[C@@H](CO)N(CCC(C)C)S(=O)(=O)c1ccc(CO)cc1)C1CC1)C(c1ccccc1)c1ccccc1	10.82

Shifting focus to the molecule that follows.
The recorded pIC50 for COC(=O)N[C@H](C(=O)NC1(CCCC(CO)N(CCC(C)C)S(=O)(=O)c2ccc(N)cc2)CCC1)C(c1ccccc1)c1ccccc1 (stereo partly drawn) is 9.63
